MEASURED ATTRIBUTE: melting point

Worked cases, answers included:
COMPOUND: O=C(O)[C@@H]1O[C@@H]1c1ccccc1
melting point: 81.5 to 83 °C
//
COMPOUND: CCc1csc(Cc2ccc(NC(=O)/C=C/c3cnn(C)c3-c3ccc(F)cc3)cc2)n1
melting point: 211 to 212 °C
//
COMPOUND: CC(C)(CO)COc1ccc(NC(=O)c2cc3ccccc3s2)cc1C#N
melting point: 188 to 189 °C
//
COMPOUND: O=C(c1c(F)cccc1F)N1COCN(c2ccc(Cl)cc2)C1=O
melting point: 125 to 126 °C

// melting point value for `CC(=O)c1cc(O)c(O)c([N+](=O)[O-])c1` : 159 to 160 °C

Lab book: melting point of `CCOC(=O)CCc1cc(C(=O)CCC(=O)O)ccc1OC` noted as 128 to 129 °C

Record `O=C(Nc1nc(C(Cl)(Cl)Cl)ns1)c1ccc([N+](=O)[O-])cc1` , field melting point: 214 °C

Form field melting point, entry O=C1Nc2ccccc2C12COc1ccc3c(c12)N(Cc1cccnc1)ON3 (stereo not given) : 230 to 232 °C

`COc1ccccc1Oc1c(Cl)nc(-c2cccnn2)nc1NS(=O)(=O)CCc1cccc2ccccc12` yielded melting point of 192 °C

Just so you know, measured melting point for `Cc1c(Br)nc(Nc2ccc(C#N)cc2)c(=O)n1C` came out at 254 to 255 °C

Per the record, `CC(=O)OCc1cc(=O)c(Oc2ccc(F)cc2)c(-c2ccc(S(C)(=O)=O)cc2)o1` has melting point of 180 °C

The compound `COC(=O)CNC(=O)c1cc(Cl)nc(Cl)c1` showed melting point equal to 140 to 141 °C

Field melting point (entry `CCC(=O)NCC[C@@H]1CCc2cc(O)c3c(c21)CCO3` ) reads 149 to 152 °C

// sample `C#CCON=C(C(=O)OC)c1nsc(NC(=O)OC(C)(C)C)n1` , its melting point was 72 to 75 °C

The reported value for `CCOc1nn(-c2ccc(C(F)(F)F)cn2)cc1CCCOc1ccc(OC(C)(C)C(=O)O)cc1` in terms of melting point is 91 to 92 °C
